# System: carbonyl reductase
# assay text: Substrate specificity: NADPH-dependent reduction by the carbonyl reductase obtained in Example 1
# Type: biochemical, Torulaspora delbrueckii
# test conditions: substrate 20 mM, coenzyme NADPH; reduction of 3,4-dimethoxyphenylacetone regarded as 100
endpoint name: Relative activity (%)
Number in %, nothing else.

Prompt line: Quote Relative activity reported for "CC(=O)CC(C)=O" please.
Response line: 422

Prompt line: Quote Relative activity reported for CCOC(=O)CC(C)=O [Ethyl acetoacetate] please.
Response line: 3170

Prompt line: Quote Relative activity reported for CC(=O)OC(C)C(C)=O (stereo not drawn) please.
Response line: 589

Prompt line: Quote Relative activity reported for COC(=O)CC(C)=O [Methyl acetoacetate] please.
Response line: 3670

Prompt line: Quote Relative activity reported for "CC(=O)c1ccccc1" please.
Response line: 256

Prompt line: Quote Relative activity reported for CC(=O)OC1CCCC1=O (stereo not drawn) please.
Response line: 567
